pIC50: −log10 of the molar value.
The following compounds were reported with pIC50 values on Poly [ADP-ribose] polymerase 1 (Homo sapiens, UniProt P09874) in different studies.
Sequence (P09874 whole entry): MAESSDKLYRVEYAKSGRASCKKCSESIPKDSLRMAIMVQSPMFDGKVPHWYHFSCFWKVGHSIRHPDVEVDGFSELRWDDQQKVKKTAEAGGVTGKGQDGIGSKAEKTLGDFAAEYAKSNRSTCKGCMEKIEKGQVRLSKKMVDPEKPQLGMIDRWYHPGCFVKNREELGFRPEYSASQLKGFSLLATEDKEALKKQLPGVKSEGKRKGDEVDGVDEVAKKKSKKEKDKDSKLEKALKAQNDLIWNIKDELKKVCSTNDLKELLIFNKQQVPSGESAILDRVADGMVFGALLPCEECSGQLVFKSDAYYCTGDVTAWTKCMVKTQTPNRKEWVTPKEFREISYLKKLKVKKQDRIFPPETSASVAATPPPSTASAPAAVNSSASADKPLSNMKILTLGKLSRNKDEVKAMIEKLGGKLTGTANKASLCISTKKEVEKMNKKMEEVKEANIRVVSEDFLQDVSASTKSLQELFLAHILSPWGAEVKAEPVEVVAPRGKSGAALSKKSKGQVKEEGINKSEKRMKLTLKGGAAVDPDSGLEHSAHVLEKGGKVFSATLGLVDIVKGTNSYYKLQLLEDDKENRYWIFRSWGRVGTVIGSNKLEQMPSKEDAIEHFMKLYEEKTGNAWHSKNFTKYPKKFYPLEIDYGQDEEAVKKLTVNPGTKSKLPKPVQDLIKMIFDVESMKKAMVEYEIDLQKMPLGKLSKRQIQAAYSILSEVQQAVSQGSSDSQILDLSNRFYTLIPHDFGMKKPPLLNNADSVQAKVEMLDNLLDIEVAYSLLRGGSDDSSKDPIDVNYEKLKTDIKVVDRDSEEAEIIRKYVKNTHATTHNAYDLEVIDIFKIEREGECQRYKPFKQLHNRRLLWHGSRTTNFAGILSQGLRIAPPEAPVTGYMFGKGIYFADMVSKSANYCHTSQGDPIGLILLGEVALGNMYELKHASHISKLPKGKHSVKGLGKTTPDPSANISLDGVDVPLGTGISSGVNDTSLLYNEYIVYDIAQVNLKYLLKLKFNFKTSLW
Would you mind labelling by pIC50? At or over 7 is rule met, under is rule not met.

Examples with answers:
compound	label
O=C(c1cc(Cc2n[nH]c(=O)c3ccccc23)ccc1F)N1CCn2c(nnc2-c2ccc([N+](=O)[O-])o2)C1	rule met
CCNC(=O)c1ccc(N2CCN(Cc3cc4c(c(OC)c3)OC(C)C(=O)N4)CC2)cc1 (racemic)	rule met

In the following, a different compound is considered.
// inclusive: pIC50 at least 7? input: `CC(C)P1(=O)CCN(C(=O)c2cc(Cc3n[nH]c(=O)c4ccccc34)ccc2F)CC1`
rule met

====

The following compounds were reported with IC50 values on Poly [ADP-ribose] polymerase 1 (Homo sapiens, UniProt P09874) in different studies.
Answer format: numeric, nM implied, no suffix.

Example compounds with recorded IC50:
structure.smiles.string	target.entity	IC50, nM
CC(C)CN1CCC(c2nc3cncc4c3n2CCNC4=O)CC1	Poly [ADP-ribose] polymerase 1 (Homo sapiens, UniProt P09874)	28
O=C(c1cc(Cc2n[nH]c(=O)c3ccccc23)cc(F)c1F)N1CCN(c2ccc(Br)cc2)CC1	Poly [ADP-ribose] polymerase 1 (Homo sapiens, UniProt P09874)	83.4
CC(C)C[C@H](NC(=O)CNC(=O)c1cc(Cc2n[nH]c(=O)c3ccccc23)ccc1F)B1O[C@@H]2C[C@@H]3C[C@@H](C3(C)C)[C@]2(C)O1	Poly [ADP-ribose] polymerase 1 (Homo sapiens, UniProt P09874)	2.1
CN(C)CCN(C)C(=O)c1cccc(-c2cc3[nH]c(=O)c4ccccc4n3n2)c1	Poly [ADP-ribose] polymerase 1 (Homo sapiens, UniProt P09874)	800
O=C(c1cc(Cc2n[nH]c(=O)c3ccccc23)ccc1F)N1CCn2c(nnc2-c2ccco2)C1	Poly [ADP-ribose] polymerase 1 (Homo sapiens, UniProt P09874)	0.26
CN(C)Cc1ccc(-c2ccc3c(Cl)cc(C(N)=O)n3n2)cc1	Poly [ADP-ribose] polymerase 1 (Homo sapiens, UniProt P09874)	93.3
O=C(c1ccc2[nH]c(=O)c3c(c2c1)CCSC3)N1CCN(c2ccccc2)CC1	Poly [ADP-ribose] polymerase 1 (Homo sapiens, UniProt P09874)	234
NC(=O)c1cccc2c1O/C(=C\c1ccc(OCCN3CCCCC3)cc1)C2=O	Poly [ADP-ribose] polymerase 1 (Homo sapiens, UniProt P09874)	544

Below: the item to evaluate.
Dear colleague, I am looking for the recorded IC50 of the following compound: `Cc1cccc(C(N)=O)c1`
19000

====

The following compounds were reported with IC50 values on Poly [ADP-ribose] polymerase 1 (Homo sapiens) in different studies.
Answer format: numeric, nM implied, no suffix.

Example compounds with recorded IC50:
structure.smiles.string	target.entity	units.symbol	IC50
O=C(c1cc2[nH]c(=O)c3ccccc3n2n1)N1CCCNCC1	Poly [ADP-ribose] polymerase 1 (Homo sapiens)	nM	30
NC(=O)c1cccc2c1O/C(=C\c1ccc(OCCCN3CCOCC3)cc1)C2=O	Poly [ADP-ribose] polymerase 1 (Homo sapiens)	nM	718
Cc1noc(C)c1S(=O)(=O)N1CCCN(C(=O)c2cccc(Cc3n[nH]c(=O)c4ccccc34)c2)CC1	Poly [ADP-ribose] polymerase 1 (Homo sapiens)	nM	12
O=C(c1ccncc1)N1CCN(C(=O)c2csc(Cc3n[nH]c(=O)c4ccccc34)c2)CC1	Poly [ADP-ribose] polymerase 1 (Homo sapiens)	nM	108

Dear colleague, I am looking for the recorded IC50 of the following compound: `NC(=O)c1cccc2cn(-c3ccc(Cl)cc3)nc12`
24

Same lookup for `O=C(NCCN1CCCCC1)c1ccc2[nH]c(=O)c3c(c2c1)CCSC3` , please.
58

Same lookup for `O=c1[nH]c2cc(-c3ccc(Br)cc3)nn2c2ccccc12` , please.
700

Same lookup for `O=C(c1cc(Cc2c[nH]c(=O)c3cc(Cl)c(Cl)n23)ccc1F)N1CCN(c2ncnc3ccccc23)CC1` , please.
1.4
